assay: Inhibition of CphA (unknown origin) using meropenem as substrate; design: species or system Bacteria
pIC50: −log10 of the molar value.
Listed next: entries and their corresponding pIC50.
Quantity: pIC50

{"Sample smiles": "N#Cc1c(-c2ccccc2)c(-c2ccccc2)n(Cc2ccccc2)c1/N=C/c1ccc(O)cc1", "Result": 4.35}
{"Sample smiles": "N#Cc1c(-c2ccccc2)c(-c2ccccc2)n(Cc2ccccc2)c1/N=C/c1cccs1", "Result": 4.24}
{"Sample smiles": "N#Cc1c(-c2ccccc2)c(-c2ccccc2)n(Cc2ccccc2)c1/N=C/c1ccccc1", "Result": 4.12}

###

system: Bacteria; test: Competitive inhibition of AIM-1 (unknown origin) using cefuroxime as substrate by Michaelis-Menten equation based kinetic analysis
Quick reference: Kic of the listed items.
Quantity: Kic (µM)

{"Sample smiles": "N#Cc1c(-c2ccccc2)c(-c2ccccc2)n(Cc2ccccc2)c1/N=C/c1cccs1", "Units": "µM", "Result": 4.5}
{"Sample smiles": "N#Cc1c(-c2ccccc2)c(-c2ccccc2)n(Cc2ccccc2)c1/N=C/c1ccccc1", "Units": "µM", "Result": 3.6}
{"Sample smiles": "COC(=O)c1ccc(/C=N/c2c(C#N)c(-c3ccccc3)c(-c3ccccc3)n2Cc2ccccc2)cc1", "Units": "µM", "Result": 6.4}
{"Sample smiles": "N#Cc1c(-c2ccccc2)c(-c2ccccc2)n(Cc2ccccc2)c1/N=C/c1ccc(O)cc1", "Units": "µM", "Result": 4.4}
{"Sample smiles": "N#Cc1c(-c2ccccc2)c(-c2ccccc2)n(Cc2ccccc2)c1NC(=O)c1ccccc1", "Units": "µM", "Result": 11}
